Bliss excess by entry:
- Test system: SAS (Oral Cavity Carcinoma);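 note: after 72 h of two-drug dosing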
- test name: Bliss excess, mean over the matrix (fraction); higher = more synergy
readout name: Bliss excess

1) Cc1c2c(nn1C)CSCc1cc(n(C)n1)CSc1cc(c3ccccc3c1)OCCCc1c(C(=O)O)n(C)c3c-2c(Cl)ccc13 [AZD5991] + CC1(C)CCC(CN2CCN(c3ccc(C(=O)NS(=O)(=O)c4ccc(NCC5CCOCC5)c([N+](=O)[O-])c4)c(Oc4cnc5[nH]ccc5c4)c3)CC2)=C(c2ccc(Cl)cc2)C1 [Venetoclax] (first compound max 1 µM, 7x7, partner max 1 µM) | 0.0098
2) N#Cc1cnc(Nc2cc(NC[C@H]3CNCCO3)c(C(F)(F)F)cn2)cn1 [SRA737] + Nc1ccn([C@@H]2O[C@H](CO)[C@@H](O)C2(F)F)c(=O)n1 [Gemcitabine] (first compound max 10 µM, 7x7, partner max 0.3 µM) | 0.105
3) O=C(c1cc(Cc2n[nH]c(=O)c3ccccc23)ccc1F)N1CCN(C(=O)C2CC2)CC1 [Olaparib] + CC1(C)CCC(CN2CCN(c3ccc(C(=O)NS(=O)(=O)c4ccc(NCC5CCOCC5)c([N+](=O)[O-])c4)c(Oc4cnc5[nH]ccc5c4)c3)CC2)=C(c2ccc(Cl)cc2)C1 [Venetoclax] (first compound max 10 µM, 7x7, partner max 1 µM) | -0.0168
4) COc1nnc2ccc(N3CCC(c4ccc(OCCN5CCN(C)C(=O)[C@H]5C)cc4)CC3)nn12 [AZD5153] + C=CCn1c(=O)c2cnc(Nc3ccc(N4CCN(C)CC4)cc3)nc2n1-c1cccc(C(C)(C)O)n1 [AZD1775] (first compound max 1 µM, partner max 1 µM) | -0.0302
5) Cc1c2c(nn1C)CSCc1cc(n(C)n1)CSc1cc(c3ccccc3c1)OCCCc1c(C(=O)O)n(C)c3c-2c(Cl)ccc13 [AZD5991] + C[C@@H](Nc1cc(F)cc(F)c1)c1cc(C(=O)N(C)C)cc2c(=O)cc(N3CCOCC3)oc12 [AZD8186] (first compound max 1 µM, 7x7, partner max 3 µM) | 0.0062
6) NC1(C(=O)N[C@@H](CCO)c2ccc(Cl)cc2)CCN(c2ncnc3[nH]ccc23)CC1 [Capivasertib] + COc1nnc2ccc(N3CCC(c4ccc(OCCN5CCN(C)C(=O)[C@H]5C)cc4)CC3)nn12 [AZD5153] (first compound max 10 µM, 7x7, partner max 1 µM) | -0.0524
7) COc1nnc2ccc(N3CCC(c4ccc(OCCN5CCN(C)C(=O)[C@H]5C)cc4)CC3)nn12 [AZD5153] + Cc1c2c(nn1C)CSCc1cc(n(C)n1)CSc1cc(c3ccccc3c1)OCCCc1c(C(=O)O)n(C)c3c-2c(Cl)ccc13 [AZD5991] (first compound max 1 µM, 7x7, partner max 1 µM) | -0.0191
